assay: yeast display, Sf9 membrane polyspecificity reagent, FACS + sequencing; frameworks hold sequencing errors
QUANTITY MEASURED: polyreactivity (PSR sort gate)

• QVQLVESGGGLVQAGGSLRLSCAASGYTFWFYAMGWYRQAPGKEREFVATISRSGGSTYYADSVKGRFTISRDNAKNTVYLQMNSLKPEDTAVYYCNARGPRSHRYDYWGQGTQVTVSS = high polyreactivity
• QDQHVESGGGLVQAGGSLRLSCAASGRTFYSYTMGWYRPPPGKERELVAAINRSGGRTYYADSVKGRFTISRDNAKNTVYLQRNSLKPEDTAVYYCNALEYYRFDYWGQCTQVTVSS = high polyreactivity
• QVQLVESGRGLVQAGGSLRLSCAASGSIFWYYAMGWYRPSPGKETELVAAIRRGGSTTYADSVKGRFTISRDNAKNTVYLQMNSLKPEDTAVYYCAAEPYYWYRGDYWGQGTQVTVSS = high polyreactivity
• QVQLVESGGGLVQAGGSLRLSCAASGITYRYNAMGWYRQAPGKEREMVAAISTSGGNTYYADSVKGRFTISRDNAKYTVYLQLNSLKPEDTAVYYCAVDGEYWYDYDGDYWGQGTQVTVSS = low polyreactivity
• QVQLVESGGGLVQAGGSLRLSCAASGSISSGYFMGWYRQAPGKERELVAAISFSGGSTYYADSVKGRFTISRDNAKNTVYLQMNSLKPEDTAVYYCNALFWYRYFSGVSQDYDYWGQGTQVTVSS = high polyreactivity

Ask: Name the recorded polyreactivity (PSR sort gate) of the item `QVQLVESGGGLVQAGGSLRLSCAASGSTFSPNAMGWYRQAPGKERELVAAITWSGGSNTYADSVKGRFTISRDNAKNTVYLQMNSLKPEDTAVYYCAADTKYDNDYWGQGTQVTVSS` in your answer.
Result: low polyreactivity

Ask: Name the recorded polyreactivity (PSR sort gate) of the item `HVQLVESGGGLVQAGGSLRLSCAASGRIFGYNAMGWYRQAPGKERELVAAISYSGGSTYYADSVKGRFTISRDNAKNTVYLQMYSLKPEDTAVYYGAARGHYASLFGGYFHYNYWGQGPQVTVSS` in your answer.
Result: high polyreactivity

Ask: Name the recorded polyreactivity (PSR sort gate) of the item `QVQLVESGGGLVQAGGSLRLSCAASGSILIGNAMGWYRQAPGKERELVAGISSDVSTNYADSVKGRFTISRDNAKNTVYLQMNSLNPEDTAVYYCNKDAGPFQEHLYSWGYDSWGQGTQVTVSS` in your answer.
Result: low polyreactivity

Ask: Name the recorded polyreactivity (PSR sort gate) of the item `QVQLVESGGGLVQAGGSLRLSCAASGRTSYTNAMGWYRQAPGKERELVAAINYSGGSTYYADSVKGRFTISRDNAKNTVYLQMNSLKPEDTAVYYCAADWDWWYQEFDYWGQGTQVTVSS` in your answer.
Result: high polyreactivity

Ask: Name the recorded polyreactivity (PSR sort gate) of the item `QVQLVESGGGLVQAGGSLRLSCAASGITFSYYAMGWYRQAPGKEREFVAAINWDGGSTYYADSVKGRFTISRDNAKNTVYLQMNSLKPEDTAVYYCNADEFEYIYVDTLNYGDDYWGQGTQVTVSS` in your answer.
Result: low polyreactivity

Ask: Name the recorded polyreactivity (PSR sort gate) of the item `QVQLVESGGGLVQAGGSLRLSCAASGRIFAYNAMGWSRQAPGKERELVAAITWSGGTTYYADSVKGRFTISRDNAKNTVYLQMNSLKPEDTAVYYCAASRRYGGYRFDYWGQGTQVTVSS` in your answer.
Result: high polyreactivity

---

test: yeast display, Sf9 membrane polyspecificity reagent, FACS + sequencing; frameworks hold sequencing errors
QUANTITY MEASURED: polyreactivity (PSR sort gate)

Examples from the recorded data:
* QVQLVESGGGLVQAGGSLRLSCAASGRIFYSYAMGCSRQAPGKERELVAAITRGGRTKYADSVKGRFTISRDNEKNTVYLQMNSLKPEDTAVYYCAAVKFYTEYNQYDYWGQGTQVTVSS | high polyreactivity
* QVQLVESGGCLVQAGGSLRLSCASSGITFFEYAMGCYRQAPGKERELVAVITSGGSTNYADSVKGRFTISRDNAKNTVYLQMNSLKPEDTAVYYCNARVVKYRWWYDYYYWGQGTQVTVSS | low polyreactivity
* QVQLVESGGGLVQAGGILRLSSAASGFTFYLYTMGWYTPAPGKERELVAAISRSGDRTYYADSVKGRFTISRDNAKNTVYLQMNSLKPEDTAVYYCNAYTSYPNTMDYWGQGTQVTVSS | high polyreactivity
* QVQLVDSGGGLVQAGGSLRLSCAASGIIFSVYAMGWYRQAPGKERELVAAITYSGGSTYYADSVKGRFTISRDNAKNTVYLQMNSLKPEDTAVYYCNAYRYNALPWRYVGYDYWGQGTQVTVSS | low polyreactivity
* QVQLVESGGGLFQAGGSLRLICAASGFIFGWYDMGWYRQAPGKERELVAAIDSGGSTNYADSVKGRFTISRDNAKYTVYLQMNSLKPEDTAVYYCAADHHDVWTEYYYWGHGTQVTVSS | low polyreactivity
* QVQLVESGGGLVQAGGSLRLSCADSGLIFEDYAMGWYRQAPGKERELVAAIDWGGGSTYYADSVKGRFTISRDNAKNTVYLQMNSLKPEDTAVYYCAADSYFSYRYNYWGQGTQVTVSS | low polyreactivity
* QVQLVESGGGLVQAGGSIRLSCAASGGTFSAYAMGWYRQAPGKERELVAAINISGGRTYYADSVKGRFTISRDNAKNTVYLQMNSLKPEDTAVYYCAAKNFRDRGNDYWGQGTQVTVSS | high polyreactivity
* QDQLVESGGCLVQAGGSLRLRCAASGITFDRYTMGWYRQAPGKERELVAAIRSGGGTYYADSVKGRFTISRDNAKNTVYLQMNSLKPEDTAVYYCAATRVSPSQYLRYYYWGQGTQVTVSS | high polyreactivity

Ask: Name the recorded polyreactivity (PSR sort gate) of the item `QVQLVESGGGLVQAGGSLRLSCAASGRILGNNVMGWYRQAPGKERELVDAITSSGGRTYYADSVKGRFTISRDNAKNTVYLQMNSLKPEDTAVYYCAAERRYYGKFNYWGQGTQVTVSS` in your answer.
Result: high polyreactivity

Ask: Name the recorded polyreactivity (PSR sort gate) of the item `QVQLVESGGGLVQAGGSLRLSCAASGRIFLYYTMGWYRQAPGKERELVAAITRSGGSTYYADSVKGRFTISRDNAKNTVYLQMISLKPEDTAVYYGADRYWERYRAFNYWGQGTQVTVSS` in your answer.
Result: high polyreactivity

Ask: Name the recorded polyreactivity (PSR sort gate) of the item `QVQLVESGGGLVQAGGSLRLSCAASGSNFFFNTMGWYRQAPGKERELVAVITSGGSTYYADSVKGRFTISRDNAKNTVYLQMNSLKPEDTAVYYCAARYLPYRRIKYDYWGQGTQVTVSS` in your answer.
Result: low polyreactivity

Ask: Name the recorded polyreactivity (PSR sort gate) of the item `QVQLVESGGGLVQAGGSLRLSCAASGSIFRYYAMGWYRPAPGKERELVARISATGASTYYADSVKGRFTISRDNAKNTVYLQMNSLKPEDTAVYYCAAGGRSRWGRYSPYDYWGQGTQVTVSS` in your answer.
Result: high polyreactivity

Ask: Name the recorded polyreactivity (PSR sort gate) of the item `QVQLVESRGGLVQAGGSLRLSCAASGSIFPYYAMGWYRQAPGKERELVAAISLSGVSTTYADSVKGRFTISRDNAKNTVYLQMNSLKPVDTAVYYCAAKSFWSRYVGGYYWGQGTQVTVSS` in your answer.
Result: high polyreactivity

Ask: Name the recorded polyreactivity (PSR sort gate) of the item `QVQLVESGGGLVQAGRSLRLSCAASGSTFYYYTMGWYRQEPGKERELVAAISFIGGSTYYADSVKGRFTISRDNAKNTVYLQMNSLKPEDTAVYYCAAESYPLSYSSATLSPSYEYWGQGTQVTVSS` in your answer.
Result: low polyreactivity

---

assay: yeast display, Sf9 membrane polyspecificity reagent, FACS + sequencing; frameworks hold sequencing errors
QUANTITY MEASURED: polyreactivity (PSR sort gate)

- QVQLVESGGGLVQAGGSLRLSCAASGITFWTYAMGWYIQAPGKERELVAAISNGGSTSYADSVKGRFTISRDNAKNTVYLQMNSLKPEDTAVYYCAADWATHRPWYWWVYYWGQGTQVTVSS: low polyreactivity
- QVQLVESGGGLVQAGGSRRLSCAASGSIFPVYAMGWYRQAPGKERELVASISTGGSTYYADSVKGRFTISRDNAKNTVYFQLNSLKPEDTAVYYCAATGWAYGYGYGYWGQGTQVTESS: low polyreactivity

---

test: yeast display, Sf9 membrane polyspecificity reagent, FACS + sequencing; frameworks hold sequencing errors
QUANTITY MEASURED: polyreactivity (PSR sort gate)

- QVQLVESGGGLLQAGGSLRLSCSASGSTFDDYAMGWYRQAPGKERELVAAIRWSGGSTYYADSVKGRFTISRDNAKNTVYLQMKSLKPEDTAVYYCNADGRRGRYDYWGQGTQVTVSS: low polyreactivity
- QVQLVESGGGLVEAGGSLRLSCAASGRISQSNAMGWYRQAPGKESELVAAISWRGGSTYYADSVKGRFTISRDNAKNTVYLEMNSLKPEDTAVYYCGAKSWYAFYYRHPYDYWGQGTQVTVSS: high polyreactivity
- QVQLVESGGGLVQAGGSLRLSCAASGITFYRYALGWYRQAPGKERELVAAISSSGGSTYYADSVKGRFTISRDNAKNTVYLQMNRLKPEDTAVYYCNAYYSVEYYYWGQGTQVTVSS: high polyreactivity
- QVQLVESGGGLVQAGGSLRLSCDASGSTFFANAMGWYRQAPGKERELVAAITIGNTNYADSVKGRFTISRDNAKYTVYLQMNSLKPEDTAVYYCNASHVSHYRARDYWGQGTQVTVSS: low polyreactivity
- QVQLVESGGGLVQAGGSLRLSCAASGFIFADYTMGWSRQAPGQERELVAVITSGGSTHYADSVKGRFTISRDNAKNTVYLQMNSLKPEDTAVYYCAARSYRPTRGDYWGQGTKVTVSS: high polyreactivity

Ask: Name the recorded polyreactivity (PSR sort gate) of the item `QVQLVESGGGLVQAGGSLRLSCAASGSIFLYYAMGWYRQAPGKVRALLAAISWDGGSTYYADSVKGRFTISRDNAKNTVYLQMNSLKPEDTAVYYCNKAPYYYLPHSLRYNYWGQGTQVTVSS` in your answer.
Result: high polyreactivity

Ask: Name the recorded polyreactivity (PSR sort gate) of the item `QVQLVESGGGLVQAGGSLRLSCAASGFIFHPYAMGWYRQAPGKERELVATITWSDDSTYYADSVKGRFTISRDNAKNTVYLQMNSLKPEDTAVYYCAARHKQHNRYDYWGQGTQVTVSS` in your answer.
Result: low polyreactivity
